Target: T1, human ferroportin (SLC40A1) fused in frame with GFP, stably expressed in HEK293 cells (human, UniProt Q9NP59 1-571)
T1 sequence (looked up): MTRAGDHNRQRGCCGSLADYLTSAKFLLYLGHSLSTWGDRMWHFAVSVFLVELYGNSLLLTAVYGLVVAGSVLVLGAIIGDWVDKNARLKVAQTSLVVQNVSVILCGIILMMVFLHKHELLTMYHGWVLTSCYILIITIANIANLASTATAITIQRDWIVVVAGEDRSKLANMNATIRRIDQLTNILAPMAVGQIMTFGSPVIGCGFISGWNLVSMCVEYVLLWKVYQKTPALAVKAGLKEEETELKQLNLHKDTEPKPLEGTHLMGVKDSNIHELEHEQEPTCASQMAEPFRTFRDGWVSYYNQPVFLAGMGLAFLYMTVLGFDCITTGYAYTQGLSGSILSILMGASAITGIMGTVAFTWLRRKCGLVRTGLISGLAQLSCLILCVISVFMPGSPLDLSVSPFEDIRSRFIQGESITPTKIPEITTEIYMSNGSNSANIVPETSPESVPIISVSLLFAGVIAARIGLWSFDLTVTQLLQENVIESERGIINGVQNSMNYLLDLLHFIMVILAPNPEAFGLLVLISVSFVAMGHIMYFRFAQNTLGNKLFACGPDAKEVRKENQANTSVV
Test: cell-based or functional assay
Square brackets hold non-standard residues; d marks the D form. * marks the point of attachment. Isovaleryl = CC(C)CC(=O)*; βAla = NCCC(=O)O
Sorting guide: entries reporting Potency EC50 beneath 9 nM go in the true (1) pile, the rest go in the false (0) pile.

Isovaleryl-DTHF[βAla]CIIFGPRSKGWVCK-NH2 (not fully specified (bridges); cysteine pairing not given here) [Isovaleric acid-DTHF-[β-Ala]-CIIFGPRSKGWVCK-NH2]
false (0)

Q: In the record for DTHFPCIKFKPRSKGWVCK (IVA (isovaleric acid) on the side chain of Lys 10; C-terminal amide) [Hy-DTHFPCIKF-K(IVA)-PRSKGWVCK-NH2] , is Potency EC50 less than 9 nM?
Result: false (0)
